Reported growth values for a set of molecules
System: NCI-H226 lung
Test: NCI-60 one-dose screen, 48 h (100 = growth as untreated, 0 = no growth, -100 = all killed)
Conditions: 10 µM unless noted
About 83,000 compounds went through this panel and 20% of them were active in at least one assay; those are over-represented in the sample as a whole.
READOUT NAME: growth (%)

molecule=CCCCCC(=O)Oc1ccc(/C(=C(/C)Cc2ccc(OC)cc2)c2ccc(OCCCN(C)C)cc2)cc1 recorded_result=93.3
molecule="CCN1C(=O)N(CC)C2Nn3c(s/c(=C\\c4ccc(OC)cc4)c3=O)=NC21 (centres undefined)" recorded_result=85.1
molecule="CCCCCCCCO/N=C\\c1c2c(O)c3c(O)c(C)c4c(c3c1O)C(=O)C(C)(O/C=C\\C(OC)C(C)C(OC(C)=O)C(C)C(O)C(C)C(O)C(C)/C=C\\C=C(\\C)C(=O)N2)O4 (centres undefined)" recorded_result=28
molecule=O=C(CSc1nc2sc3c(c2c(=O)n1-c1ccc(Cl)cc1)CCCC3)Nc1nc(-c2cccc(Br)c2)cs1 recorded_result=64
